Hey, just so you know, these numbers are from patent US20230146395A1.

targetSystem: Full length human recombinant PIKFYVE (Homo sapiens)
Construct: Full length human recombinant PIKFYVE
Sequence (Q9Y2I7 whole entry): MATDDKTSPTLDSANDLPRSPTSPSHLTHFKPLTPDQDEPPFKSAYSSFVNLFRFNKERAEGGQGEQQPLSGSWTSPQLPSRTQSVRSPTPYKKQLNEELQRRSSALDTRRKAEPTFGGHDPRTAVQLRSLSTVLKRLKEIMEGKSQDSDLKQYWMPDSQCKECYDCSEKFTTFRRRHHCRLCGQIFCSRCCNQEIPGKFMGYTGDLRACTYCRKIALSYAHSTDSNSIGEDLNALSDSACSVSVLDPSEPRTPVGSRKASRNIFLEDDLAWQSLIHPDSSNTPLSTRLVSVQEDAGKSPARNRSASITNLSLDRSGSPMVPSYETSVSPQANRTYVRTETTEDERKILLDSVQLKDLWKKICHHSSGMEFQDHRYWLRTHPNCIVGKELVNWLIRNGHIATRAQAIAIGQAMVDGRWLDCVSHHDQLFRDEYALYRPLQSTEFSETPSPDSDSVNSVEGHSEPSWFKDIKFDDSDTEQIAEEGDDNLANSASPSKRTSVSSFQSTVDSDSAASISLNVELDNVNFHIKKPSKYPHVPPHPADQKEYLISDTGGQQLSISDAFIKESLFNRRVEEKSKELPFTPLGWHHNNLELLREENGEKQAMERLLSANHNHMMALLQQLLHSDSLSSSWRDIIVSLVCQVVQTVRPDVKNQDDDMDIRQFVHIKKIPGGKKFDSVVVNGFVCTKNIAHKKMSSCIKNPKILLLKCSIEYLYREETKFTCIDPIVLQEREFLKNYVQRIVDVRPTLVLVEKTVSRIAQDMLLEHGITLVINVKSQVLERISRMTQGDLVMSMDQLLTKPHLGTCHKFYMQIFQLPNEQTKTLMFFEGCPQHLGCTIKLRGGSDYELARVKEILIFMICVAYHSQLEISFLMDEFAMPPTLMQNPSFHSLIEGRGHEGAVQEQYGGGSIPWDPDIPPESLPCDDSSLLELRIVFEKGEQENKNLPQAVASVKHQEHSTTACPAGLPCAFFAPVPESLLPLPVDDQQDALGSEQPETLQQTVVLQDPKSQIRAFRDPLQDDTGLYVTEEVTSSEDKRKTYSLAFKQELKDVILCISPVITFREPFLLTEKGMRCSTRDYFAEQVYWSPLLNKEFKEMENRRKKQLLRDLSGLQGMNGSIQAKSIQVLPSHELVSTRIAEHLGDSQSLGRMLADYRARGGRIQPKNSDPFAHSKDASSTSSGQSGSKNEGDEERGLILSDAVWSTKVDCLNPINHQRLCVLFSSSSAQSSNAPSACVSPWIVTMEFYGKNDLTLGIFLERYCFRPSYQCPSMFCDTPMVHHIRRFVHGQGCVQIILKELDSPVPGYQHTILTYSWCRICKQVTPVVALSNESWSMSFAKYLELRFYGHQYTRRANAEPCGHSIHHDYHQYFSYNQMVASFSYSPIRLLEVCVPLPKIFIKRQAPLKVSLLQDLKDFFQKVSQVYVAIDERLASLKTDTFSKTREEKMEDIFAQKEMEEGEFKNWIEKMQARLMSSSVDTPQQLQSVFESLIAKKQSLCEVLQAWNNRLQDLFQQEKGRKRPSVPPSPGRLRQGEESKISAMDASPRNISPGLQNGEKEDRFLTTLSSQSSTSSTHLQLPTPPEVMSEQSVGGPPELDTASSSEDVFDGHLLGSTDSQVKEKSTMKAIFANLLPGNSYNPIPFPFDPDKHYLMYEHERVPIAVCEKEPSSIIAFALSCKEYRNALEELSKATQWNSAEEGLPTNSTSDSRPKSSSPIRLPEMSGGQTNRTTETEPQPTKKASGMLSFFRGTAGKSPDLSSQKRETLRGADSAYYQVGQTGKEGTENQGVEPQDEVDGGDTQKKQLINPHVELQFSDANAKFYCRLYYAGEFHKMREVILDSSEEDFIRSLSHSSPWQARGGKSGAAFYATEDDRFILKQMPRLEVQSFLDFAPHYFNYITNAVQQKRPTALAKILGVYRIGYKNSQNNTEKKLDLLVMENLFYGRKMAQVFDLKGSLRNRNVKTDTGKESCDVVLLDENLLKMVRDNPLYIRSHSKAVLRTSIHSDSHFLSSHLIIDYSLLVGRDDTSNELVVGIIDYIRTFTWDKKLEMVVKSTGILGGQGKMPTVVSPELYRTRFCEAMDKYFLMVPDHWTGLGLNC
experiment: Inhibition of PIKfyve (microfluidic electrophoresis kinase assay, PI3P/PS substrate)
reportedConditions: 12 concentrations
pIC50: −log10 of the molar value. Where a name gives a salt, the structure may show the parent alone.
Think of 7 as a floor: if pIC50 stands on it or above, it is Y; beneath it, N.

>  <compound>
CNC(=O)c1cc2nc(Nc3cc(C(C)C)n[nH]3)nc(N3CCOCC3)c2o1 [Compound 88]

>  <targetSystem>
Full length human recombinant PIKFYVE (Homo sapiens)

>  <discreteLabel>
N

$$$$
>  <compound>
c1ccc(-c2coc(Nc3nc(N4CCOCC4)c4oc(-c5ccncc5)cc4n3)n2)cc1 [Compound 45]

>  <targetSystem>
Full length human recombinant PIKFYVE (Homo sapiens)

>  <discreteLabel>
Y

$$$$
>  <compound>
Cc1cccc(-c2cnn(-c3nc(N4CCOCC4)c4oc(C(=O)NC5CC5)c(C(F)(F)F)c4n3)c2)c1 [Compound 147]

>  <targetSystem>
Full length human recombinant PIKFYVE (Homo sapiens)

>  <discreteLabel>
N

$$$$
>  <compound>
C[C@@H](NC(=O)c1cc2nc(Nc3cc(-c4ccccc4)n[nH]3)nc(N3CCOCC3)c2o1)C1CC1 [Compound 64, hydrochloride]

>  <targetSystem>
Full length human recombinant PIKFYVE (Homo sapiens)

>  <discreteLabel>
Y

$$$$
>  <compound>
Cc1cccc(-c2cnn(-c3nc(N4CCOCC4)c4oc(-c5cc(C)nn5CCN(C)C)cc4n3)c2)c1 [Compound 145]

>  <targetSystem>
Full length human recombinant PIKFYVE (Homo sapiens)

>  <discreteLabel>
Y

$$$$

* * *

targetSystem: Full length human recombinant PIKFYVE (Homo sapiens)
Construct: Full length human recombinant PIKFYVE
experiment: Inhibition of PIKfyve (microfluidic electrophoresis kinase assay, PI3P/PS substrate)
reportedConditions: 12 concentrations
Description: Full length human recombinant PIKFYVE expressed in baculovirus expression system as N-terminal GST-fusion protein (265 kDa) was obtained from Carna Biosciences (Kobe, Japan). […] The kinase reactions were assembled in 384-well plates (Greiner) in a total volume of 20 mL as follows. […] Terminated plates were analyzed on a microfluidic electrophoresis instrument (Caliper LabChip® 3000, Caliper Life Sciences/Perkin Elmer). […] Percent inhibition (Pinh) was determined using the following equation: […]
pIC50: −log10 of the molar value. Counter-ions that a name gives are not always drawn.
Dear colleague, classification is by pIC50, with ranges listed here: category 1 = under 7, category 2 = from 7 up to 8, category 3 = 8 and over

>  <compound>
COCCN(C)Cc1cc2nc(Nc3cc(-c4ccccc4)n[nH]3)nc(N3CCOCC3)c2o1 [Compound 17]

>  <discreteLabel>
category 1

$$$$
>  <compound>
CNC(=O)c1cc2nc(Nc3cc(C4CCC4)n[nH]3)nc(N3CCOCC3)c2o1 [Compound 80]

>  <discreteLabel>
category 1

$$$$
>  <compound>
Cc1cccc(-c2cnn(-c3nc(N4CCOCC4)c4oc(C(=O)NC5CC5)cc4n3)c2)c1 [Compound 100]

>  <discreteLabel>
category 3

$$$$
>  <compound>
FC(F)(F)Oc1cccc(-c2cc(Nc3nc(N4CCOCC4)c4oc(-c5ccncc5)cc4n3)[nH]n2)c1 [Compound 25]

>  <discreteLabel>
category 1

$$$$
>  <compound>
Cc1cccc(-c2cnn(-c3nc(N4CCOCC4)c4oc(C(=O)NCC5CC5)cc4n3)c2)c1 [Compound 115]

>  <discreteLabel>
category 3

$$$$
>  <compound>
O=C(c1cc2nc(Nc3cc(-c4ccccc4)n[nH]3)nc(N3CCOCC3)c2o1)N1CCC1 [Compound 53, hydrochloride]

>  <discreteLabel>
category 2

$$$$
>  <compound>
Cc1cc(-c2cc3nc(-n4cc(-c5ccccc5)cn4)nc(N4CCOCC4)c3o2)[nH]n1 [Compound 163]

>  <discreteLabel>
category 2

$$$$
>  <compound>
O=C(c1cc2nc(-n3cc(-c4ccccc4)cn3)nc(N3CCOCC3)c2o1)N1CCC1 [Compound 67]

>  <discreteLabel>
category 1

$$$$
>  <compound>
c1ccc(-c2cc(Nc3nc(N4CCOCC4)c4oc(-c5ccncc5)cc4n3)[nH]n2)cc1 [Compound 1, hydrochloride]

>  <discreteLabel>
category 3

$$$$
>  <compound>
O=C(NCC1CC1)c1cc2nc(Nc3cc(-c4ccccc4)[nH]n3)nc(N3CCOCC3)c2o1 [Compound 61]

>  <discreteLabel>
category 3

$$$$
>  <compound>
CNC(=O)c1cc2nc(Nc3cc(CC4CC4)n[nH]3)nc(N3CCOCC3)c2o1 [Compound 79]

>  <discreteLabel>
category 1

$$$$
>  <compound>
c1ccc(-c2cc(Nc3nc(N4CCOCC4)c4oc(CN5CCCC5)cc4n3)[nH]n2)cc1 [Compound 16]

>  <discreteLabel>
category 1

$$$$
